- Test Target: IRAK4 (Homo sapiens)
- Sequence (Q9NWZ3 1-460): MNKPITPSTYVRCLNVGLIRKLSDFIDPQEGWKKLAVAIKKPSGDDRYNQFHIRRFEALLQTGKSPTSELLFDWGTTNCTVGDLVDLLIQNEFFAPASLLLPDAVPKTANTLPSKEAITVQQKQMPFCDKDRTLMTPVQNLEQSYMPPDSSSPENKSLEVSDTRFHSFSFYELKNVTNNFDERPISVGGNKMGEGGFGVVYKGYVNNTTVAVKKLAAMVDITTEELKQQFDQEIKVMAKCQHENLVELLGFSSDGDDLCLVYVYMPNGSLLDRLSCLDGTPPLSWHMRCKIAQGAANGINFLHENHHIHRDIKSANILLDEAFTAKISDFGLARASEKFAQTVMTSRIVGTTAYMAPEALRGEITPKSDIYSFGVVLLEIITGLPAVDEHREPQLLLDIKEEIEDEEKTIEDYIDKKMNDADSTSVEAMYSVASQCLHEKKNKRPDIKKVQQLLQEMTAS
- Assay Name: ALE THP1 HTRF (IRAK4 degradation in THP1 cells, HTRF with anti-IRAK4 antibodies)
- Assay type: cell-based
- Parameters: THP1 Homogeneous Time Resolved Fluorescence (ALE THP1 HTRF) Procedure; endogenous in cells; host or cells: THP1
- Conditions Used: THP1 cell lysate, read-out: ALE THP1 HTRF EC50
Structures can show the parent of a compound that is named as a salt.
Reported Metric: DC50 (µM)
Response body: numeric value in µM, unit text excluded.

See these solved cases before continuing.
1. N[C@@H]1C[C@@H](F)CN(c2ccn3ncc(C(=O)Nc4cn([C@H]5CC[C@H](CCN6CCC7(CC6)CN(c6ccc(C8CCC(=O)NC8=O)cc6)C7)CC5)nc4C(F)F)c3n2)C1 (some centres unmarked) [Compound P-23, formic acid salt]: 0.011
2. N[C@@H]1C[C@@H](F)CN(c2ccn3ncc(C(=O)Nc4cn([C@H]5CC[C@H](C(=O)N6CCN(Cc7ccc(C8CCC(=O)NC8=O)cc7)CC6)CC5)nc4C(F)(F)F)c3n2)C1 (some centres unmarked) [Compound P-12]: 6.86

Query compound follows.
Ask | Identify measured DC50 associated with N[C@@H]1C[C@@H](F)CN(c2ccn3ncc(C(=O)Nc4cn([C@H]5CC[C@H](C(=O)N[C@H]6CC[C@H](c7ccc(C8CCC(=O)NC8=O)nc7)CC6)CC5)nc4C(F)F)c3n2)C1 (some centres unmarked) [Compound P-34]
Reply | 0.005
